Assay: Plasma half-life in rats
Assay type: ADME, organism-based
Conditions: rat
observation.type: half-life (min)

Worked cases, half-life given:
CCSCCNC(=O)[C@H](Cc1c[nH]c2ccccc12)NC(=O)[C@@H](CC(=O)NO)CC(C)C | 37.6
CC(C)C[C@H](CC(=O)NO)C(=O)N[C@@H](Cc1c[nH]c2ccccc12)C(=O)NCCCCOCc1ccccc1 | 27
CC(C)C[C@H](CC(=O)NO)C(=O)N[C@@H](Cc1c[nH]c2ccccc12)C(=O)NCCSCCN(C)C | 43.7
CC(C)C[C@H](CC(=O)NO)C(=O)N[C@@H](Cc1c[nH]c2ccccc12)C(=O)NCCCCN(C)C | 26.6
CC(C)C[C@H](CC(=O)NO)C(=O)N[C@@H](Cc1c[nH]c2ccccc12)C(=O)NCCCCC(=O)O | 6.9
COCCNC(=O)[C@H](Cc1c[nH]c2ccccc12)NC(=O)[C@@H](CC(=O)NO)CC(C)C | 19
CC(C)C[C@H](CC(=O)NO)C(=O)N[C@@H](Cc1c[nH]c2ccccc12)C(=O)NCCSc1ccccc1 | 33.3

1 = CSCCCNC(=O)[C@H](Cc1c[nH]c2ccccc12)NC(=O)[C@@H](CC(=O)NO)CC(C)C
2 = CNC(=O)[C@H](Cc1ccc(OC)cc1)NC(=O)[C@@H](CC(=O)NO)CC(C)C
3 = CC(C)C[C@H](CC(=O)NO)C(=O)N[C@@H](Cc1c[nH]c2ccccc12)C(=O)NCCCN(C)C
Data request: Arrange these compounds by their half-life, starting with the largest number. Rank the items, then write their labels in that order.
Data returned: 1, 3, 2
(1: 37 min, 3: 25 min, 2: 9 min)
